Test system: CH1R
Test: Inhibition of cell proliferation, human cancer cell lines in culture (CH1R)
Assay type: cell-based
Conditions: Homo sapiens; read-out: concentration necessary to achieve a 50% decrease in cell proliferation
quantity_measured: IC50 (µM)
Give the value, in units of µM, as a plain number.

q: What value of IC50 has been reported for the following molecule? `CCc1ccccn1`
a: 3.6

----------
Test system: A2780R
Assay: Inhibition of cell proliferation, human cancer cell lines in culture (A2780R)
Assay type: cell-based
Conditions: A2780R versus A2780
quantity_measured: resistance factor

Take a look at these entries with their results.
q: What value of resistance factor has been reported for the following compound? `CCc1ccccn1`
a: (2.5)

q: What value of resistance factor has been reported for the following compound? `CC(C)c1ccccn1`
a: (3.6)

q: What value of resistance factor has been reported for the following compound? N.N.O=C([O-])C1(C(=O)[O-])CCC1.[Pt+2] [Carboplatin, reference compound]
a: (14)

q: What value of resistance factor has been reported for the following compound? N.N.[Cl][Pt][Cl] [Cisplatin, [PtCl2 (NH3)2], reference compound]
a: (22)

q: What value of resistance factor has been reported for the following compound? `Cc1cc[n+]([Pt-2]([NH3+])([OH])([OH])([Cl])[Cl])c(C)c1`
a: (2.1)

API: the following record is the query input.
q: What value of resistance factor has been reported for the following compound? `Cc1cccc[n+]1[Pt-2]([NH3+])([Cl])[Cl]`
a: (3.4)

----------
System: HX62
Assay: Inhibition of cell proliferation, human cancer cell lines in culture (HX62)
Assay type: cell-based
Conditions: Homo sapiens, HX62, read-out: concentration necessary to achieve a 50% decrease in cell proliferation
quantity_measured: IC50

q: What value of IC50 has been reported for the following compound? `CC(C)c1ccccn1`
a: 49 µM

----------
pIC50 by entry:
System: CH1R
Assay: Inhibition of cell proliferation, human cancer cell lines in culture (CH1R)
Assay type: cell-based
Conditions: CH1R, bred to be resistant to cisplatin; read-out: concentration necessary to achieve a 50% decrease in cell proliferation
To interpret pIC50, take it as minus log10 of a concentration measured in moles per litre.

Take a look at these entries with their results.
q: What value of pIC50 has been reported for the following molecule? `Cc1cccc[n+]1[Pt-2]([NH3+])([Cl])[Cl]`
a: 5.43

q: What value of pIC50 has been reported for the following molecule? N.N.O=C([O-])C1(C(=O)[O-])CCC1.[Pt+2] [Carboplatin, reference compound]
a: 5.22

q: What value of pIC50 has been reported for the following molecule? N.N.[Cl][Pt][Cl] [Cisplatin, [PtCl2 (NH3)2], reference compound]
a: 6.36

q: What value of pIC50 has been reported for the following molecule? `Cc1ccnc(C)c1.N.[Cl][Pt][Cl]`
a: 5.28

API: the following record is the query input.
q: What value of pIC50 has been reported for the following molecule? `Cc1cc[n+]([Pt-2]([NH3+])([OH])([OH])([Cl])[Cl])c(C)c1`
a: 5.05

----------
Test system: A2780R
Assay: Inhibition of cell proliferation, human cancer cell lines in culture (A2780R)
Type: cell-based
Conditions: A2780R, bred to be resistant to cisplatin; read-out: concentration necessary to achieve a 50% decrease in cell proliferation
quantity_measured: IC50 (µM)
Give the value, in units of µM, as a plain number.

q: What value of IC50 has been reported for the following compound? N.N.[Cl][Pt][Cl] [Cisplatin, [PtCl2 (NH3)2], reference compound]
a: 7.8

q: What value of IC50 has been reported for the following compound? Cc1cccc[n+]1[Pt-2]([NH3+])([Cl])[Cl] [Example 1]
a: 4.4

q: What value of IC50 has been reported for the following compound? Cc1ccnc(C)c1.N.[Cl][Pt][Cl] [Example 4]
a: 18

q: What value of IC50 has been reported for the following compound? N.N.O=C([O-])C1(C(=O)[O-])CCC1.[Pt+2] [Carboplatin, reference compound]
a: 37.4

---
q: What value of IC50 has been reported for the following compound? Cc1cc[n+]([Pt-2]([NH3+])([OH])([OH])([Cl])[Cl])c(C)c1 [Example 7]
a: 30
